# METHOD_NOTES: Particle surface area (BET method)
# Type: physicochemical
# CONDITION_SET: precipitated or ground glibenclamide product
MEASURED_METRIC: particle surface area (m^2 /g)

Examples with their reported particle surface area follow.
>  <COMPOUND>
COc1ccc(Cl)cc1C(=O)NCCc1ccc(S(=O)(=O)NC(=O)NC2CCCCC2)cc1 [Example 7, glibenclamide]

>  <NUMBER>
7.8

$$$$
>  <COMPOUND>
COc1ccc(Cl)cc1C(=O)NCCc1ccc(S(=O)(=O)NC(=O)NC2CCCCC2)cc1 [Example 4, glibenclamide]

>  <NUMBER>
6.8

$$$$
>  <COMPOUND>
COc1ccc(Cl)cc1C(=O)NCCc1ccc(S(=O)(=O)NC(=O)NC2CCCCC2)cc1 [Example 5, glibenclamide]

>  <NUMBER>
10.3

$$$$

a. COc1ccc(Cl)cc1C(=O)NCCc1ccc(S(=O)(=O)NC(=O)NC2CCCCC2)cc1 [Example 3, glibenclamide]
b. COc1ccc(Cl)cc1C(=O)NCCc1ccc(S(=O)(=O)NC(=O)NC2CCCCC2)cc1 [Example 2, glibenclamide]
Compare the recorded particle surface area of a and b ; state which is larger. Bench note: the answer is the label of the chosen record.
b
(b: 9.8 m^2 /g, a: 6.0 m^2 /g)

----------
# METHOD_NOTES: Particle surface area (BET method)
# Assay type: physicochemical
# CONDITION_SET: precipitated or ground glibenclamide product
MEASURED_METRIC: particle surface area (m^2 /g)

>  <COMPOUND>
COc1ccc(Cl)cc1C(=O)NCCc1ccc(S(=O)(=O)NC(=O)NC2CCCCC2)cc1 [Example 6, glibenclamide]

>  <NUMBER>
5.2

$$$$
>  <COMPOUND>
COc1ccc(Cl)cc1C(=O)NCCc1ccc(S(=O)(=O)NC(=O)NC2CCCCC2)cc1 [Example 1, glibenclamide]

>  <NUMBER>
5.79

$$$$
>  <COMPOUND>
COc1ccc(Cl)cc1C(=O)NCCc1ccc(S(=O)(=O)NC(=O)NC2CCCCC2)cc1 [Example 8, glibenclamide]

>  <NUMBER>
5.8

$$$$
